Values were extracted from PubChem BioAssay AID248.

Please provide measured T/C for the entries that follow.
test system: L1210 leukemia ip in BDF1 mice, survival T/C; assay: NCI In Vivo Anticancer Drug Screen. Data for tumor model L1210 Leukemia (intraperitoneal) in B6D2F1 (BDF1) mice; settings: endpoint: mean survival time; dose: 100.0 mg/kg/injection; schedule: Q01DX009 (ip); vehicle: Klucel (hydroxypropylcellulose) (HPC); higher = longer survival
Toxic doses and inconclusive results are not listed.

Examples with answers:
1. O=C(NNC(=O)OCc1ccccc1)OCc1ccccc1
104 % of control
2. NC1(C(=O)O)CCCC2CCCCC21 (stereo not drawn)
100 % of control
3. O=C1c2cccc3cccc(c23)C(=O)N1CC1CCCO1 (stereo not drawn)
94 % of control
4. COC(=O)c1ccccc1NC(=S)NC(=O)c1ccc(OC)cc1
93 % of control
5. Cc1ccc(N=NNc2ccc(C)cc2)cc1
97 % of control
6. CCOC(=O)c1c(Cl)c(Cl)c(Cl)c(Cl)c1C(=O)OCC
105 % of control

Kindly give each listed record's T/C.
1. CCCCCCCCCCCCCCCC
2. CCCCCN(CCCCC)C(=O)c1ccc([N+](=O)[O-])cc1
3. CN(C)N=Nc1ccc(C(=O)Oc2ccc3c(c2)CCC2C3CCC3(C)C(=O)CCC23)cc1 (stereo not drawn)
4. COc1ccc(CC(=S)N2CCOCC2)cc1
5. NNC(=O)c1ccc(Br)cc1
6. Nc1ccccc1C(=O)N/N=C/c1ccc(Cl)cc1Cl
7. Nc1ncc(C(=O)O)s1

Completion:
1: 109 % of control; 2: 97 % of control; 3: 90 % of control; 4: 104 % of control; 5: 104 % of control; 6: 89 % of control; 7: 98 % of control
